Biological target: IKZF2 (Homo sapiens, UniProt Q96SW2+Q9UKS7)
Sequence (Q9UKS7 1-500 isoform Q9UKS7-2, one chain of several): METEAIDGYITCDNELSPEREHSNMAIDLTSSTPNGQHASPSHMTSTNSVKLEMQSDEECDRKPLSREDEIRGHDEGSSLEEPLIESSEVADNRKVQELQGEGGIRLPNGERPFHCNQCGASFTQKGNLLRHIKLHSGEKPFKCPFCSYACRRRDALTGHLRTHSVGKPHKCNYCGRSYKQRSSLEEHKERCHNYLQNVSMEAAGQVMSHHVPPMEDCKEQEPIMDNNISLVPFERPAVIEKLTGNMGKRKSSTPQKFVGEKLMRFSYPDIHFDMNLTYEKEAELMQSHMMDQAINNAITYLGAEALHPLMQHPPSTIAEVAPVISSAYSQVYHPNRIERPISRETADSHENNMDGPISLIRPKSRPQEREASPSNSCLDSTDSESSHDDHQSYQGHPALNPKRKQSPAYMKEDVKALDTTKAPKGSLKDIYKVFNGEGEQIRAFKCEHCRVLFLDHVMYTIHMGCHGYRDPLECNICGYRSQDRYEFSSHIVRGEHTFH
Assay: HEK293 HiBiT in vitro degradation of IKZF2
Format: cell-based
Set-up: expressed in transfected cells
Conditions: HEK293 HiBiT, 18-24 hr incubation, normalized to DMSO control; read-out: IKZF2 EC50
We begin with a simple list: items and their reported DC50.
Respond with a number, then the unit of measure.

Use the examples below as a reference point.
[[record]]
compound = "COCC1CCC(N[C@H]2CCCC[C@@H]2Cc2ccc3c(c2)CN(C2CCC(=O)NC2=O)C3=O)CC1 (single isomer, unassigned) [Example 251]"
reported_value = "0.001 µM"

[[record]]
compound = "O=C1CCC(N2Cc3cc(C[C@H]4CCCC[C@@H]4NC4CCS(=O)(=O)CC4)ccc3C2=O)C(=O)N1 (stereo partly drawn) [Example 91]"
reported_value = "0.017 µM"


Below: the item to evaluate.
stdin: Item: CC(N[C@H]1CCCC[C@@H]1Cc1ccc2c(c1)CN(C1CCC(=O)NC1=O)C2=O)C1(F)CC1 (single isomer, unassigned) [Example 225] Test system: IKZF2 (Homo sapiens, UniProt Q96SW2+Q9UKS7) Read-out: DC50 Value: ?
stdout: 0.011 µM

----------
Target: IKZF1 (Homo sapiens, UniProt Q13422+Q96SW2)
Construct: expressed in transfected cells
Sequence (Q13422 whole entry, one chain of several): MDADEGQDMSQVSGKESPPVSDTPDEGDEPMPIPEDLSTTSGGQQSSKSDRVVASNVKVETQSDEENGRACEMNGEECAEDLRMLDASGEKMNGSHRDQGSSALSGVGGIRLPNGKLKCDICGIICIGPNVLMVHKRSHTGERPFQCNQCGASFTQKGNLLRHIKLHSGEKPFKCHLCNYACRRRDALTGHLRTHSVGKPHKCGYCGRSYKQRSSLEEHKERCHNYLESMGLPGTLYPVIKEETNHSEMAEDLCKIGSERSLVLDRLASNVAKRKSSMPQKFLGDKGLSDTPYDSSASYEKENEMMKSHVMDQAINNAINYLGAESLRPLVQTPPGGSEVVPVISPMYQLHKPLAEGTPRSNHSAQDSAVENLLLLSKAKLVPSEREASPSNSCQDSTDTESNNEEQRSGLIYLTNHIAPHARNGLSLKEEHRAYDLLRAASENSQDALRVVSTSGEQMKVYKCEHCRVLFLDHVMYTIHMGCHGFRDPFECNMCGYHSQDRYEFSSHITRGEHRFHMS
Test: HEK293 HiBiT in vitro degradation of IKZF1
Assay type: cell-based
Details: HEK293 HiBiT; maximum degradation at the highest concentration tested
Value Kind: IKZF1 Dmax (%)
Quick note: give the figure in %, leave out the unit.

In the examples that follow, each entry is paired with its recorded IKZF1 Dmax.
[[record]]
compound = "CCC(C)N[C@H]1CCCC[C@@H]1Cc1ccc2c(c1F)CN(C1CCC(=O)NC1=O)C2=O (single isomer, unassigned)"
value_kind = "IKZF1 Dmax"
reported_value = 43

[[record]]
compound = "O=C1CCC(N2Cc3c(ccc(C[C@H]4CCCC[C@@H]4NC4CCOC4)c3F)C2=O)C(=O)N1 (stereo partly shown) [Example 118]"
value_kind = "IKZF1 Dmax"
reported_value = 44

[[record]]
compound = "C[C@H]1CCCC(N[C@H]2CCCC[C@@H]2Cc2ccc3c(c2)CN(C2CCC(=O)NC2=O)C3=O)C1 (stereo partly shown)"
value_kind = "IKZF1 Dmax"
reported_value = 39

[[record]]
compound = "O=C1CCC(N2Cc3cc(C[C@H]4CCCC[C@@H]4NC4CCC5(CC4)CC5(F)F)ccc3C2=O)C(=O)N1 (single isomer, unassigned)"
value_kind = "IKZF1 Dmax"
reported_value = 54

[[record]]
compound = "O=C1CCC(N2Cc3c(ccc(C[C@H]4CCCC[C@@H]4NC4CCOC4)c3F)C2=O)C(=O)N1 (stereo partly shown) [Example 189]"
value_kind = "IKZF1 Dmax"
reported_value = 46


Moving on to the next compound.
stdin: // returns reported IKZF1 Dmax for input CC(N[C@H]1CCCC[C@@H]1Cc1ccc2c(c1)CN(C1CCC(=O)NC1=O)C2=O)C1CCS(=O)(=O)CC1 (single isomer, unassigned)
stdout: 50

----------
Molecular target: IKZF1 (Homo sapiens, UniProt Q13422+Q96SW2)
Construct: expressed in transfected cells
Assay: HEK293 HiBiT in vitro degradation of IKZF1
Type: cell-based
Conditions: HEK293 HiBiT, 18-24 hr incubation, normalized to DMSO control; read-out: IKZF1 EC50
Hi! Could you tag entries with DC50 below 200 nM as T, and those at or above as F? Much appreciated.

stdin: Please state whether DC50 is below 200 nM for O=C1CCC(N2Cc3c(ccc(C[C@H]4OCCC[C@@H]4NC4CCOC4)c3F)C2=O)C(=O)N1 (single isomer, unassigned) [Example 296]
stdout: F

stdin: Please let me know if O=C1CCC(N2Cc3cc(C[C@H]4CCCC[C@@H]4NCc4ccccc4)c(F)cc3C2=O)C(=O)N1 (some centres unmarked) [Example 4] shows DC50 below 200 nM.
stdout: T

stdin: Say whether its DC50 is strictly beneath 200 nM. Entry: CC(N[C@H]1CCCC[C@@H]1Cc1ccc2c(c1)CN(C1CCC(=O)NC1=O)C2=O)C1(C(F)F)CC1 (some centres unmarked) [Example 312]
stdout: F

stdin: # strict comparison: is reported DC50 < 200 nM? input = O=C1CCC(N2Cc3cc(C[C@H]4CCCC[C@@H]4N4CC(Oc5ccccc5Cl)C4)ccc3C2=O)C(=O)N1 (some centres unmarked) [Example 30]
stdout: T

stdin: # TODO verify DC50 < 200 nM strictly for this compound: O=C1CCC(N2Cc3c(ccc(C[C@H]4CCCC[C@@H]4NC4CCC(F)(F)CC4)c3F)C2=O)C(=O)N1 (some centres unmarked) [Example 84]
stdout: T

stdin: For [2H]C1(N[C@H]2CCCC[C@@H]2Cc2ccc3c(c2F)CN(C2CCC(=O)NC2=O)C3=O)CCCCC1 (some centres unmarked) [Example 211] , is the recorded DC50 below the cut-off of 200 nM?
stdout: T

stdin: is_below(DC50, 200 nM) for O=C1CCC(N2Cc3cc(C[C@H]4CCCC[C@@H]4NC4CCC45COC5)ccc3C2=O)C(=O)N1 (single isomer, unassigned) [Example 286] ?
stdout: F

stdin: Dear colleague, could you confirm whether DC50 of CC(N[C@H]1CCCO[C@@H]1Cc1ccc2c(c1F)CN(C1CCC(=O)NC1=O)C2=O)C1CCOCC1 (single isomer, unassigned) [Example 298] falls below 200 nM? Thanks.
stdout: F

stdin: Find out if reported DC50 for O=C1CCC(N2Cc3cc(C[C@H]4CCCC[C@@H]4NC4CCC5COC4O5)ccc3C2=O)C(=O)N1 (some centres unmarked) [Example 195] is less than 200 nM
stdout: F

----------
Target: SALL4 (Homo sapiens, UniProt Q96SW2+Q9UJQ4)
Construct: expressed in transfected cells
Sequence (Q9UJQ4 whole entry): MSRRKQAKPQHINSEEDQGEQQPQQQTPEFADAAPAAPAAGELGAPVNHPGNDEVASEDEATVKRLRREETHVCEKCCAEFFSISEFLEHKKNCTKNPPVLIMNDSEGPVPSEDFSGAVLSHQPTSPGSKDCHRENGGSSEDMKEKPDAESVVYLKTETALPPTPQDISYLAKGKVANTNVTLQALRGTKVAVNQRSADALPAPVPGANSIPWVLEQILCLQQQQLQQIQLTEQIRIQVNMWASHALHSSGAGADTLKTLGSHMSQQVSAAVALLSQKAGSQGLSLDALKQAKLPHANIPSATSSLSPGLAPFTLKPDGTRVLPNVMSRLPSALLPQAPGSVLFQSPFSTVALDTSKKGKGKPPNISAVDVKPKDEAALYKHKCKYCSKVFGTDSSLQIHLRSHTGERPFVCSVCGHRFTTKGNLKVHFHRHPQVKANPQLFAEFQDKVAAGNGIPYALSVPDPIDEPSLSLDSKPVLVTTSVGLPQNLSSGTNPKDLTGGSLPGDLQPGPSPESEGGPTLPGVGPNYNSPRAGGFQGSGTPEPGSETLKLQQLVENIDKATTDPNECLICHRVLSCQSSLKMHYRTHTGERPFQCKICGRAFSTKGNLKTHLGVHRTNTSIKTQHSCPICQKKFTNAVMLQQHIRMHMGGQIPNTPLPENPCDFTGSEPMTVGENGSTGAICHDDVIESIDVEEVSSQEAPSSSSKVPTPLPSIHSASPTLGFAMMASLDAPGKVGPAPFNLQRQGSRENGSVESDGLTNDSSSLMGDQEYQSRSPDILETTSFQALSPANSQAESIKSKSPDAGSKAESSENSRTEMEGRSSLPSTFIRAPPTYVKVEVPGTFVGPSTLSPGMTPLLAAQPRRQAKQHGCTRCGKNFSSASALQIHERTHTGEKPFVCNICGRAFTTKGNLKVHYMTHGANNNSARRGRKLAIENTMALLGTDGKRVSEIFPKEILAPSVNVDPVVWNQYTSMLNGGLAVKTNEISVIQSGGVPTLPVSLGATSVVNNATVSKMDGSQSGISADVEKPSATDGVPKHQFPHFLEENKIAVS
Sequence (Q96SW2 whole entry): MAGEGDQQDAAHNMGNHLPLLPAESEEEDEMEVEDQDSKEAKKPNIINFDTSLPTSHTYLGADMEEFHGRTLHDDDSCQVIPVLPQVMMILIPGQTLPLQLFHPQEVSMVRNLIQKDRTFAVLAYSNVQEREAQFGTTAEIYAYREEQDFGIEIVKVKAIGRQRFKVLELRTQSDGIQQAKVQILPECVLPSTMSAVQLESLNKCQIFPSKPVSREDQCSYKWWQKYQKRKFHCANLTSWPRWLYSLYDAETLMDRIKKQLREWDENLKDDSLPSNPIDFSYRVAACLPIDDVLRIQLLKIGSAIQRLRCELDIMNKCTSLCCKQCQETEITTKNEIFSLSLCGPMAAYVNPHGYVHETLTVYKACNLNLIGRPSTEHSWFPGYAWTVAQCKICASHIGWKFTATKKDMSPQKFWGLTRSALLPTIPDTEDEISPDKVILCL
Sequence (Q16531 whole entry partner): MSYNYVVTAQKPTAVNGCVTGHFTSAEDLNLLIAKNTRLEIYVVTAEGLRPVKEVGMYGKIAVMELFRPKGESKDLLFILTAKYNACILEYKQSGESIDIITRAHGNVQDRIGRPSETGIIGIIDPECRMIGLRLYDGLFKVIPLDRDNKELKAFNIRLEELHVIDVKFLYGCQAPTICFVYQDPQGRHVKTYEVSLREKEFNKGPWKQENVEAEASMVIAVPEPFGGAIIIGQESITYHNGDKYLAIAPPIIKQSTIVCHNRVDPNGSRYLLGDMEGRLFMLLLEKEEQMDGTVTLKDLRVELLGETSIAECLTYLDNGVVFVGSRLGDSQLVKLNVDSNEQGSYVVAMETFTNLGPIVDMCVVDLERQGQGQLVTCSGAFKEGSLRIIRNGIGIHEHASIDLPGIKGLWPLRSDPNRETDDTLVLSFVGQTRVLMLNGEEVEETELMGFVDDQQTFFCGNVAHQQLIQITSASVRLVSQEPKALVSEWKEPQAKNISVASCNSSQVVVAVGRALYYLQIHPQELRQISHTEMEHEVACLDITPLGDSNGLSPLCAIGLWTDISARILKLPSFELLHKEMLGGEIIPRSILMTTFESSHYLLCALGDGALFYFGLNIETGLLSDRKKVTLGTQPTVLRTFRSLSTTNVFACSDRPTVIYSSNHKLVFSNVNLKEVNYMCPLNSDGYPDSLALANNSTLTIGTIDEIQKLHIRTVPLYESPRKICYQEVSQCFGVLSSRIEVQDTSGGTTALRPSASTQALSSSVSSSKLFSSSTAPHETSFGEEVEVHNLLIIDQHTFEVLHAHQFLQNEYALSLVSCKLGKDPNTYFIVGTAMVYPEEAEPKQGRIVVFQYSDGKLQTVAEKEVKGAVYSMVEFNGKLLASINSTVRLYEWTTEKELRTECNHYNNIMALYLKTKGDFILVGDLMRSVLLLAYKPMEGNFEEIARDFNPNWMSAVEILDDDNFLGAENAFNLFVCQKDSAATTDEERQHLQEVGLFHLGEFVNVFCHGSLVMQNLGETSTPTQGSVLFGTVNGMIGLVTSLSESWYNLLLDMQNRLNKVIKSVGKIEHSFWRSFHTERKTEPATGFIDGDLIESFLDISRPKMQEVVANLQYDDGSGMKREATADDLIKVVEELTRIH
Experiment: HEK293 HiBiT in vitro degradation of SALL4
Type: cell-based
Details: 18-24 hr incubation, normalized to DMSO control, read-out: SALL4 EC50
Reported DC50 values for a set of compounds

[[record]]
compound = "CC1CC[C@H](NC2CCC(F)(F)CC2)[C@@H](Cc2ccc3c(c2)CN(C2CCC(=O)NC2=O)C3=O)C1 (single isomer, unassigned) [Example 325]"
reported_value = "> 10 µM"


stdin: // DC50 lookup, key: CC(N[C@H]1CCCO[C@@H]1Cc1ccc2c(c1F)CN(C1CCC(=O)NC1=O)C2=O)C1CCOCC1 (single isomer, unassigned)
stdout: > 10 µM

stdin: Need DC50 of O=C1CCC(N2Cc3c(ccc(C[C@H]4OCCC[C@@H]4NC4CCC5(CC4)CC5(F)F)c3F)C2=O)C(=O)N1 (single isomer, unassigned) , thanks.
stdout: > 10 µM

----------
Biological target: IKZF1 (Homo sapiens, UniProt Q13422+Q96SW2)
Construct: expressed in transfected cells
Experiment: HEK293 HiBiT in vitro degradation of IKZF1
Assay type: cell-based
Settings: HEK293 HiBiT, 18-24 hr incubation, normalized to DMSO control; read-out: IKZF1 EC50
Listing: DC50 of selected compounds

stdin: Look up DC50 for this compound: O=C1CCC(N2Cc3c(ccc(C[C@H]4OCCC[C@@H]4NC4CC5(CCCCC5)C4)c3F)C2=O)C(=O)N1 (stereo partly drawn) [Example 158]
stdout: 72 nM

stdin: Look at this compound and give its reported DC50. CC(C)OC1CCC(N[C@H]2CCCC[C@@H]2Cc2ccc3c(c2)CN(C2CCC(=O)NC2=O)C3=O)CC1 (single isomer, unassigned) [Example 168]
stdout: 246 nM

----------
Dmax for assorted compounds
Biological target: IKZF2 (Homo sapiens, UniProt Q96SW2+Q9UKS7)
Assay: HEK293 HiBiT in vitro degradation of IKZF2
Format: cell-based
Parameters: expressed in transfected cells
Settings: HEK293, HEK293 HiBiT; maximum degradation at the highest concentration tested
Output spec: scalar in %, unitless text.

As a guide, the following entries are already answered.
[[record]]
compound = "[2H]C1(N[C@H]2CCCC[C@@H]2Cc2ccc3c(c2F)CN(C2CCC(=O)NC2=O)C3=O)CCCC1 (stereo partly shown)"
measure_unit = "%"
reported_value = 98

[[record]]
compound = "O=C1CCC(N2Cc3cc(C[C@H]4CCCC[C@@H]4NC4CC5CCC5C4)ccc3C2=O)C(=O)N1 (stereo partly shown)"
measure_unit = "%"
reported_value = 97

[[record]]
compound = "O=C1CCC(N2Cc3cc(C[C@H]4CCCC[C@@H]4NCc4ccccc4)ccc3C2=O)C(=O)N1 (stereo partly shown)"
measure_unit = "%"
reported_value = 88

[[record]]
compound = "C[C@H](N[C@H]1CCCC[C@@H]1Cc1ccc2c(c1)CN(C1CCC(=O)NC1=O)C2=O)c1ccccc1 (stereo partly shown)"
measure_unit = "%"
reported_value = 89

[[record]]
compound = "CC(C)C(C)N[C@H]1CCCO[C@@H]1Cc1ccc2c(c1F)CN(C1CCC(=O)NC1=O)C2=O (stereo partly shown)"
measure_unit = "%"
reported_value = 95


stdin: Need Dmax, item CC(COc1ccccc1)N[C@H]1CCCC[C@@H]1Cc1ccc2c(c1)CN(C1CCC(=O)NC1=O)C2=O (stereo partly shown)
stdout: 90

stdin: Consider the compound shown here: [2H]C1(N[C@H]2CCCC[C@@H]2Cc2ccc3c(c2)CN(C2CCC(=O)NC2=O)C3=O)CCCCC1 (stereo partly shown) What is its recorded Dmax?
stdout: 97

# credit: patent US11897862B2
